Biological target: PI3Kδ (Homo sapiens (Human), UniProt O00329)
Sequence (O00329 whole entry, canonical isoform): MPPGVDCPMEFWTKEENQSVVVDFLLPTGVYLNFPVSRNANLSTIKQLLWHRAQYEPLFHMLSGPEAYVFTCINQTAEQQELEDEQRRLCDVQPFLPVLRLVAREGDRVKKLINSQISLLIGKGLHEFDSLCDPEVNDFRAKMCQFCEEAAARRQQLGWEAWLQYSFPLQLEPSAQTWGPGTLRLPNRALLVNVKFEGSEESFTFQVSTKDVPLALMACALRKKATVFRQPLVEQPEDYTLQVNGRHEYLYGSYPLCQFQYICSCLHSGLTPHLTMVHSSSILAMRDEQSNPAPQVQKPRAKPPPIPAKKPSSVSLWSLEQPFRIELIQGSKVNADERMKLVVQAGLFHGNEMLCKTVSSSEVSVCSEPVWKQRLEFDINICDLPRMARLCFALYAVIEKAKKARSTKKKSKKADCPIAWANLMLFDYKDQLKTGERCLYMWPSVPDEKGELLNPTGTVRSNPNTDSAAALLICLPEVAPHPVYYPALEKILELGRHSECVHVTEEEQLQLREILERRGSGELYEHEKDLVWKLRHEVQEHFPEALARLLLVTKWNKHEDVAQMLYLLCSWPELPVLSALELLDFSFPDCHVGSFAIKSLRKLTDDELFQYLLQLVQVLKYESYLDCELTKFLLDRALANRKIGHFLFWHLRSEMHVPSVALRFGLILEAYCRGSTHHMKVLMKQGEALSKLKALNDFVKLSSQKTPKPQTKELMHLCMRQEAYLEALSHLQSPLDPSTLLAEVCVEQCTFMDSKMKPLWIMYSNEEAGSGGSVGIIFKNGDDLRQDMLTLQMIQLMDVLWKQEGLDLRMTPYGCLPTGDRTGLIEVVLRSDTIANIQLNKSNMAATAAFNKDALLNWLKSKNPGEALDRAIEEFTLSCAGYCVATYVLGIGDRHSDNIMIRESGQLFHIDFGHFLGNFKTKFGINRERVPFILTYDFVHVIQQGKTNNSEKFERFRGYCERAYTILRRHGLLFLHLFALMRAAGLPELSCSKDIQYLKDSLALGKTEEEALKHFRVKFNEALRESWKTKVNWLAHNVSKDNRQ
Sequence (P27986 whole entry partner, canonical isoform): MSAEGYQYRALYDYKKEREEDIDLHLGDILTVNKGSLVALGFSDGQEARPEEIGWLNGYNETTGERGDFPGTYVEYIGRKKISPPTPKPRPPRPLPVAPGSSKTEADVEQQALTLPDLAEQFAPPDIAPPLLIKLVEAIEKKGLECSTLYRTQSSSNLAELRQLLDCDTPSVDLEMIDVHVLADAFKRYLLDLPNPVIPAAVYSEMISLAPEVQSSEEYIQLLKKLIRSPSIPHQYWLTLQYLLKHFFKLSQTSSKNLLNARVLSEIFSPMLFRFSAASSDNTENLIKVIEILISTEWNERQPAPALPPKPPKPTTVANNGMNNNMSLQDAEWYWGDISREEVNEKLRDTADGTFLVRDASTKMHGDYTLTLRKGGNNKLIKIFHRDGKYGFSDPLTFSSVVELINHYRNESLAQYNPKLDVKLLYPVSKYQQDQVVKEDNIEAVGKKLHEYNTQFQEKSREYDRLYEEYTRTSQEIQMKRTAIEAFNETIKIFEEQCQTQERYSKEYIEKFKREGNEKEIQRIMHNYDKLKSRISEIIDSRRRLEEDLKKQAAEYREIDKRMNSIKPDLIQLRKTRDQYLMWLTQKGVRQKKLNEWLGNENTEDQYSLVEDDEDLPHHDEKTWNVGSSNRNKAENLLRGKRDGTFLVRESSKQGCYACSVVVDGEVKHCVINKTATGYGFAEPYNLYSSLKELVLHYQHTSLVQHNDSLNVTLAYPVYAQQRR
Assay: TR-FRET enzymatic activity assay against PI3K isoforms
Conditions: 2×Km ATP, 30 minutes at 25° C.
Description: The compounds of formula (I) were characterized for their enzymatic activity against the PI3K isoforms. […] TR-FRET monitored the formation of 3,4,5-inositol triphosphate molecule that competed with fluorescently labeled PIP3 for binding to the GRP-1 pleckstrin homology domain protein.
Classification scheme (IC50): class A (below 5 nM), class B (5 nM to below 20 nM), class C (20 nM or more)

See these solved cases before continuing.
compound: C[C@H](Nc1ncnc(N)c1C#N)c1nc2cccc(Cl)c2c(=O)n1CCCN
target.under.test: PI3Kδ (Homo sapiens (Human), UniProt O00329)
class.name: class B
--
compound: C[C@H](Nc1ncnc(N)c1C#N)c1nc2cccc(Cl)c2c(=O)n1CCC(C)(C)N
target.under.test: PI3Kδ (Homo sapiens (Human), UniProt O00329)
class.name: class B
--
compound: C[C@H](Nc1nc(N)nc(N)c1C#N)c1nc2cccc(Cl)c2c(=O)n1Cc1ncc[nH]1
target.under.test: PI3Kδ (Homo sapiens (Human), UniProt O00329)
class.name: class C
--
compound: C[C@H](Nc1ncnc(N)c1C#N)c1nc2cccc(Cl)c2c(=O)n1Cc1cc[nH]n1
target.under.test: PI3Kδ (Homo sapiens (Human), UniProt O00329)
class.name: class C
--
compound: C[C@H](Nc1nc(N)nc(N)c1C#N)c1nc2cccc(Cl)c2c(=O)n1CCCN(C)Cc1ccccc1
target.under.test: PI3Kδ (Homo sapiens (Human), UniProt O00329)
class.name: class A
--
compound: N#Cc1c(N)ncnc1N[C@H](c1nc2cccc(Cl)c2c(=O)n1CCCN)C1CC1
target.under.test: PI3Kδ (Homo sapiens (Human), UniProt O00329)
class.name: class B
--
compound: C[C@H](Nc1ncnc(N)c1C#N)c1nc2cccc(Cl)c2c(=O)n1CC1CCCN1 (stereo partly shown)
target.under.test: PI3Kδ (Homo sapiens (Human), UniProt O00329)
class.name: class C
--
compound: N#Cc1c(N)nc(N)nc1N[C@H](c1nc2cccc(Cl)c2c(=O)n1CCCN)C1CC1
target.under.test: PI3Kδ (Homo sapiens (Human), UniProt O00329)
class.name: class A
--
compound: C[C@H](Nc1nc(N)nc(N)c1C#N)c1nc2cccc(Cl)c2c(=O)n1CCN1CCCC1
target.under.test: PI3Kδ (Homo sapiens (Human), UniProt O00329)
class.name: class C
--
compound: C[C@H](Nc1ncnc2scnc12)c1nc2cccc(Cl)c2c(=O)n1CCC(C)(C)N
target.under.test: PI3Kδ (Homo sapiens (Human), UniProt O00329)
class.name: class C

In: Hello team, could you let me know which band the following compound falls into: C[C@H](Nc1nc(N)nc(N)c1C#N)c1nc2cccc(Cl)c2c(=O)n1Cc1cn[nH]c1
Out: class A

In: Returns: class label. Input: NCCCn1c([C@@H](Nc2nc(N)nc(N)c2Cl)C2CC2)nc2cccc(Cl)c2c1=O
Out: class B

In: Kindly state the category for this compound: C[C@H](Nc1ncnc(N)c1C#N)c1nc2cccc(Cl)c2c(=O)n1CC1CCNCC1
Out: class A

In: Looking at C[C@H](Nc1nc(N)nc(N)c1C#N)c1nc2cccc(Cl)c2c(=O)n1Cc1cc[nH]n1 , which class would you pick?
Out: class A

In: Pick a category. Item: C[C@H](Nc1ncnc(N)c1C#N)c1nc2cccc(Cl)c2c(=O)n1[C@H]1C[C@H](N)C1
Out: class C
